Ref: paper PMC7468596

experimentalSystem: α-glucosidase (rat intestinal)
Construct: supernatant of rat intestinal acetone powder
assayDetails: p-nitrophenyl-α-D-glucopyranoside hydrolysis, […] nm, crude intestinal enzyme
Assay type: biochemical
metric: IC50 (µM)
Write the number in µM without appending the unit.

Field: IC50 (α-glucosidase (rat intestinal)). Entry: `CC1(C)CC[C@]2(C)CC[C@]3(C)C(=CC[C@@H]4[C@@]5(C)CCC(=O)C(C)(C)[C@@H]5[C@H](O)C[C@]43C)[C@@H]2C1`
830
